// provenance: patent US10941114B2

Tested on: Staphylococcus aureus
Experiment: Antibacterial activity assay (MIC, broth dilution)
Format: cell-based
Conditions: Staphylococcus aureus; Table 16; CLSI M07-A10 dilution method; read-out: MIC S. aureus
Classify: t when MIC is strictly less than 1 µg/mL; f when MIC is not.

molecule: CN(CCO)c1ccc(/C=C/c2cc(-c3ccc(Br)cc3)cc(-c3ccc(Br)cc3)[n+]2C)cc1.[I-] [Compound 9g]
qualitative.label: f

q: Lab note: MIC threshold 1 µg/mL. Does this molecule come in strictly under it? Cc1ccc(-c2cc(-c3ccc(Cl)cc3)cc(/C=C/c3ccc(N(C)CCC#N)cc3)[n+]2C)cc1.[I-] [Compound 9q]
a: t

q: Lab note: MIC threshold 1 µg/mL. Does this molecule come in strictly under it? CN(C)c1ccc(/C=C/c2cc(-c3ccc(Br)cc3)cc(-c3cccc(Br)c3)[n+]2C)cc1.[I-] [Compound 9l]
a: f

q: Lab note: MIC threshold 1 µg/mL. Does this molecule come in strictly under it? CCN(CC)c1ccc(/C=C/c2cc(-c3ccc(Br)cc3)cc(-c3ccc(C)c(C)c3)[n+]2C)cc1.[I-] [Compound 9v]
a: f

q: Lab note: MIC threshold 1 µg/mL. Does this molecule come in strictly under it? Cc1ccc(-c2cc(-c3ccc(Cl)cc3)cc(/C=C/c3ccc(N(C)CCO)cc3)[n+]2C)cc1.[I-] [Compound 9p]
a: t

q: Lab note: MIC threshold 1 µg/mL. Does this molecule come in strictly under it? CCC[n+]1c(/C=C/c2ccc(N(C)C)cc2)cc(-c2ccc(Br)cc2)cc1-c1ccc(C)cc1.[I-] [Compound 9e3]
a: t

q: Lab note: MIC threshold 1 µg/mL. Does this molecule come in strictly under it? CN(CCO)c1ccc(/C=C/c2cc(-c3ccc(Br)cc3Cl)cc(-c3ccc(Br)cc3)[n+]2C)cc1.[I-] [Compound 9z3]
a: f

q: Lab note: MIC threshold 1 µg/mL. Does this molecule come in strictly under it? Cc1ccc(-c2cc(-c3ccc(Cl)cc3)cc(/C=C/c3ccc(N(C)C)cc3)[n+]2C)cc1.[I-] [Compound 9n]
a: f

q: Lab note: MIC threshold 1 µg/mL. Does this molecule come in strictly under it? Cc1ccc(-c2cc(-c3ccc(Br)cc3)cc(/C=C/c3ccc(N(C)CCC#N)cc3)[n+]2C)cc1C.[I-] [Compound 9u]
a: f

q: Lab note: MIC threshold 1 µg/mL. Does this molecule come in strictly under it? CN(C)c1ccc(/C=C/c2cc(-c3ccc(Cl)cc3)cc(-c3ccc(Br)cc3)[n+]2C)cc1.[I-] [Compound 9c]
a: t

q: Lab note: MIC threshold 1 µg/mL. Does this molecule come in strictly under it? CCN(CC)c1ccc(/C=C/c2cc(-c3ccc(Br)cc3)cc(-c3cccc(Br)c3)[n+]2C)cc1.[I-] [Compound 9m]
a: f

----------
Assay: Maximum Tolerated Dose (MTD) and in vivo toxicity at the MTD
Conditions: mouse, in vivo, ip
outcome.measure: MTD

q: Recall and state the measured MTD for CN(C)c1ccc(/C=C/c2cc(-c3ccc(Br)cc3)cc(-c3ccc(Br)cc3)[o+]2)cc1 [Compound 6jc48-1] .
a: ≤ 100 mg/kg

----------
Test: in vivo
Conditions: CD1, mouse, plasma, iv, 10 mg/kg
outcome.measure: Vd (L/kg)
Entry rule: numbers only, all in L/kg.

q: Recall and state the measured Vd for `CN(C)c1ccc(/C=C/c2cc(-c3ccc(F)cc3)cc(-c3ccc(F)cc3)[o+]2)cc1` .
a: 46.3
